Ref: ChEMBL document CHEMBL4613277

assay: Selectivity index, ratio of GI50 for mouse Macrophage cells to MIC for Mycobacterium tuberculosis H37Rv; assay type: toxicity
Listed molecules paired with reported selectivity ratio

Worked cases, selectivity ratio given:
> print(dat)
                              line.notation      assay.readout    result
1   Cc1cc(CNC2CCCCC2)c(C)n1-c1ccc(C(C)C)cc1  selectivity ratio  23 to 48
2  Cc1cc(CN[C@H]2C[C@@H]3CC[C@H]2C3)c(C)n1-c1ccc(Cl)cc1  selectivity ratio  47 to 94
3      COc1ccc(-n2c(C)cc(CNC3CCCCC3)c2C)cc1  selectivity ratio  16 to 32

Let's switch to this molecule now.
Record Cc1cc(CNCC2CCCCC2)c(C)n1-c1ccc(Cl)cc1 , field selectivity ratio: 39 to 195
